- STUDY_TARGET: Aurora kinase B (Homo sapiens)
- Sequence (Q96GD4 whole entry): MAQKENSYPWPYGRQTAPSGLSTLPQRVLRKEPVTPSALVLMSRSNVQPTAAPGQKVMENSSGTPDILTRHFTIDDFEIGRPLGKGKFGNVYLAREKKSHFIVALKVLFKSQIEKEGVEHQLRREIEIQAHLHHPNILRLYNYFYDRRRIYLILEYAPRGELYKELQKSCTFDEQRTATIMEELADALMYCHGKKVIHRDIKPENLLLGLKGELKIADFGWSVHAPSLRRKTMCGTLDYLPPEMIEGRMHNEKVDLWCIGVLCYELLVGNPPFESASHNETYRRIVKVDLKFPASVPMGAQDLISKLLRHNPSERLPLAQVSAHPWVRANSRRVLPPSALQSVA
- METHOD_SUMMARY: Inhibition of recombinant full length human N-terminal GST-tagged Aurora B expressed in baculovirus infected Sf9 cells using myelin basic protein as substrate after 60 mins by ADP-Glo luminescence assay
Form field: log10 of IC50 (one value per entry).
Transform log10 | Measure IC50 | Unit µM

## Input Check Aurora kinase B (Homo sapiens) data and give log10 of IC50 for COc1ccc(NC(=O)Nc2ccc(CNc3nc4ccc(OCCN5CCOCC5)cc4s3)cc2)cc1 .
## Output -0.60

## Input Quote log10 of IC50 with test system Aurora kinase B (Homo sapiens) for O=C(Nc1ccc(Cl)cc1)Nc1cccc(CNc2nc3ccc(OCCN4CCOCC4)cc3s2)c1
## Output 0.08

## Input Report log10 of IC50 on Aurora kinase B (Homo sapiens) for this entry: CN(C)CCOc1ccc2nc(NCc3ccc(NC(=O)Nc4ccc(Cl)cc4)cc3)sc2c1
## Output -0.49

## Input Given S=C(Nc1ccc(Cl)cc1)Nc1ccc(CNc2nc3ccc(OCCN4CCOCC4)cc3s2)cc1 , report its log10 of IC50 on Aurora kinase B (Homo sapiens).
## Output -0.96

New cases:
## Input Write log10 of IC50 of O=C(Nc1ccc(CNc2nc3ccc(OCCN4CCOCC4)cc3s2)cc1)Nc1cccc(Cl)c1 ; system used: Aurora kinase B (Homo sapiens)
## Output -0.34

## Input Write log10 of IC50 of COc1ccc(NC(=S)Nc2ccc(CNc3nc4ccc(OCCN5CCOCC5)cc4s3)cc2)cc1 ; system used: Aurora kinase B (Homo sapiens)
## Output -0.44

## Input Report the value of log10 of IC50 obtained on Aurora kinase B (Homo sapiens) for O=C(Nc1cccc(Cl)c1)Nc1cccc(CNc2nc3ccc(OCCN4CCOCC4)cc3s2)c1 .
## Output 0.00

## Input For Aurora kinase B (Homo sapiens), give log10 of IC50 of the listed compound: O=C(Nc1ccc(Cl)cc1)Nc1ccc(CNc2nc3ccc(OCCN4CCCCC4)cc3s2)cc1
## Output 0.36

## Input Supply log10 of IC50 measured with Aurora kinase B (Homo sapiens) for O=C(Nc1ccc(CNc2nc3ccc(OCCN4CCOCC4)cc3s2)cc1)Nc1ccc(Cl)c(Cl)c1 .
## Output -0.57

* * *

- STUDY_TARGET: UniProt:O14965
- Sequence (whole entry): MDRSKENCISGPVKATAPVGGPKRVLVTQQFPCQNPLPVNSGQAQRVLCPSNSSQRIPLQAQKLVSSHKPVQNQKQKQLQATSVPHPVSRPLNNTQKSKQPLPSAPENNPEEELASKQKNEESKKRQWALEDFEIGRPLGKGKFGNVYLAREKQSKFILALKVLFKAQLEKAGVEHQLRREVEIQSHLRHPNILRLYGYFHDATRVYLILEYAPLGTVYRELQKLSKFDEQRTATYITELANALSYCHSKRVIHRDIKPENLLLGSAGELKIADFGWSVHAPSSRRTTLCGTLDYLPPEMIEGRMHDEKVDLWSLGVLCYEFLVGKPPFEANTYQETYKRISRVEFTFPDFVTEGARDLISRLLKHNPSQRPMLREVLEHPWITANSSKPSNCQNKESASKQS
- METHOD_SUMMARY: Inhibition of recombinant full length human N-terminal GST-tagged Aurora A expressed in baculovirus infected Sf9 cells at 1 uM using myelin basic protein as substrate after 60 mins by ADP-Glo luminescence assay relative to control
The source made the active and inactive calls. The calls are words filed in the database; no cut-off is given here.
METRIC: inhibition

Study these solved cases before continuing.
## Input Using the record for O=C(Nc1ccccc1)Nc1cccc(CNc2nc3ccc(OCCN4CCOCC4)cc3s2)c1 , state its measured inhibition.
## Output inactive

## Input State its inhibition: O=C(Nc1ccccc1)Nc1ccc(CNc2nc3ccc(OCCN4CCOCC4)cc3s2)cc1
## Output inactive

## Input Indicate the recorded inhibition value for this compound: O=C(Nc1cccc(Cl)c1)Nc1cccc(CNc2nc3ccc(OCCN4CCOCC4)cc3s2)c1
## Output inactive

## Input Hello, please tell me recorded inhibition for this one: O=C(Nc1ccc(F)cc1)Nc1ccc(CNc2nc3ccc(OCCN4CCOCC4)cc3s2)cc1
## Output inactive

## Input Supply inhibition value. Item: O=C(Nc1ccc(CNc2nc3ccc(OCCN4CCOCC4)cc3s2)cc1)Nc1cccc(Cl)c1
## Output inactive

## Input Retrieve inhibition measured for O=C(Nc1ccc(Cl)cc1)Nc1ccc(CNc2nc3ccc(OCCN4CCOCC4)cc3s2)cc1 and print it.
## Output inactive

## Input Provide measured inhibition value, entry: S=C(Nc1ccc(Cl)cc1)Nc1ccc(CNc2nc3ccc(OCCN4CCOCC4)cc3s2)cc1
## Output 3%

## Input Answer with the recorded inhibition of O=C(Nc1ccc(Cl)cc1)Nc1cccc(CNc2nc3ccc(OCCN4CCOCC4)cc3s2)c1 only.
## Output inactive

## Input For COc1ccc(NC(=S)Nc2ccc(CNc3nc4ccc(OCCN5CCOCC5)cc4s3)cc2)cc1 , write its inhibition.
## Output inactive

## Input Look up and state reported inhibition for CN(C)CCOc1ccc2nc(NCc3ccc(NC(=O)Nc4ccc(Cl)cc4)cc3)sc2c1
## Output inactive

---
## Input Give inhibition for COc1ccc(NC(=O)Nc2ccc(CNc3nc4ccc(OCCN5CCOCC5)cc4s3)cc2)cc1
## Output inactive

## Input Look up inhibition of O=C(Nc1ccc(Cl)cc1)Nc1ccc(CNc2nc3ccc(OCCN4CCCCC4)cc3s2)cc1 and report it.
## Output inactive

## Input Specify inhibition for O=C(Nc1ccc(Br)cc1)Nc1ccc(CNc2nc3ccc(OCCN4CCOCC4)cc3s2)cc1 and stop.
## Output 9%

## Input Give inhibition for O=C(Nc1ccc(CNc2nc3ccc(OCCN4CCOCC4)cc3s2)cc1)Nc1ccc(Cl)c(Cl)c1
## Output 2%

Recorded values, source ChEMBL document CHEMBL4033715.
